These entries and their values trace back to patent US7329737.

# STUDY SYSTEM: T1, hK1 (human tissue kallikrein 1), recombinant (human, UniProt P06870 25-262)
# T1 construct: Expressed in P. pastoris from KLK1 cDNA and purified; enzymatically active; also called KLK1; Recombinant (Pichia) Kallikrein
# TEST DETAILS: SPR
ENDPOINT NAME: kon

BINDER	RESULT
M0110-D06 (Fab, V domains shown) VH: EVQLLESGGGLVQPGGSLRLSCAASGFTFSWYRMAWVRQAPGKGLEWVSYIGPSGGSTSYADSVKGRFTISRDNSKNTLYLQMNSLRAEDTATYYCARVGTFYGMDVWGQGTTVTVSS VL: DIQMTQSPSTLSASLGDRVIITCRASQGIRSWLAWYQQKPGKAPKLLIYAASSLQSGVPSRFSGSGSGTDFTLTISSLQPEDFATYYCQQSYSTPWTFGQGTKVEIKR	75600 M⁻¹ s⁻¹
M0131-F09 (Fab, V domains shown) VH: EVQLLESGGGLVQPGGSLRLSCAASGFTFSHYVMQWVRQAPGKGLEWVSGIGPSGGSTTYADSVKGRFTISRDNSKNTLYLQMNSLRAEDTAVYYCARVGVWYGMDVWGQGTTVTVSS VL: DIQMTQSPATLSLSPGERATLSCRASQSVSSYLAWYQQKPGQAPRLLIYDASNRATGIPARFSGSGSGTDFTLTISSLEPEDFAVYYCQQRSNWLWTFGQGTKVEIKR	311000 M⁻¹ s⁻¹
